src = patent US9624170B2

Target: human MAGL (His-hMAGL) (Homo sapiens)
Construct: made in house; host or cells: Escherichia coli BL21(DE3)
Sequence (Q99685 whole entry): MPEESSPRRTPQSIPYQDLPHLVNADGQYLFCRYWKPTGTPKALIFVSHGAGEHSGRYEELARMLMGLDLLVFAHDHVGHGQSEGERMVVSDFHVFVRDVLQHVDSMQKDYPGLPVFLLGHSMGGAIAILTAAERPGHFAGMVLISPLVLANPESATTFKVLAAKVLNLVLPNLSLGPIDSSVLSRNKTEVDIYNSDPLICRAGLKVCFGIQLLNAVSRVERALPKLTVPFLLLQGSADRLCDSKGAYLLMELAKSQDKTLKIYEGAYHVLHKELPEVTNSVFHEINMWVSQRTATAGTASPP
Test: Measurement of MAGL inhibitory activity by mass spectrometry
Assay type: biochemical
Conditions: MAGL inhibitory rate, test compound 10 μM, His-hMAGL, substrate 2-arachidonylglycerol, RapidFire-mass spectrometry
Experimental: Thereafter, to each well was added 150 μM 2-arachidonylglycerol (Tocris Bioscience) by 5 μL, and the mixture was incubated at room temperature for 10 min. […] The amount of arachidonic acid in the obtained enzyme reaction mixture was calculated by measuring by RapidFire-mass spectrometry and correcting by the amount of arachidonic acid-d8. […] The peak area integration was analyzed using RapidFire integrator software version 3.6 (Agilent Technologies, Inc.). […]
OBSERVABLE: inhibition at 10 µM (%)
Provide only the numeric value, understood in %.

Could you share which inhibition at 10 µM value was measured for CC(C)(C)OC(=O)N1CCc2cc(N3CC(N4CCN(C(=O)c5nccs5)CC4)CC3=O)ccc21 (stereo not drawn) [Example 372] ?
101

And NC(=O)Cc1cccc(-c2ccc(N3CC(N4CCN(C(=O)c5nccs5)CC4)CC3=O)cc2)c1 (stereo not drawn) [Example 214] ?
93

And O=C(c1nccs1)N1CCN(C2CC(=O)N(c3cccc(-c4cccc5cc[nH]c45)c3)C2)CC1 (stereo not drawn) [Example 320] ?
100

And O=C(c1nccs1)N1CCN(C2CN(c3ccc(Oc4ccccc4)cc3)C(=O)C2O)CC1 (stereo not drawn) [Example 260] ?
84

And Cc1nc2ccccn2c1-c1cccc(N2CC(N3CCN(C(=O)c4nccs4)CC3)CC2=O)c1 (stereo not drawn) [Example 335] ?
101

And CC(C)(C)OC(=O)N1CCc2cc(N3C[C@H](N4CCN(C(=O)c5cscn5)CC4)CC3=O)ccc21 [Example 408] ?
103
